// data source = patent US5126344A

target: angiotensin II (AII) receptors (Cavia porcellus)
Sequence (Q9WV26 whole entry): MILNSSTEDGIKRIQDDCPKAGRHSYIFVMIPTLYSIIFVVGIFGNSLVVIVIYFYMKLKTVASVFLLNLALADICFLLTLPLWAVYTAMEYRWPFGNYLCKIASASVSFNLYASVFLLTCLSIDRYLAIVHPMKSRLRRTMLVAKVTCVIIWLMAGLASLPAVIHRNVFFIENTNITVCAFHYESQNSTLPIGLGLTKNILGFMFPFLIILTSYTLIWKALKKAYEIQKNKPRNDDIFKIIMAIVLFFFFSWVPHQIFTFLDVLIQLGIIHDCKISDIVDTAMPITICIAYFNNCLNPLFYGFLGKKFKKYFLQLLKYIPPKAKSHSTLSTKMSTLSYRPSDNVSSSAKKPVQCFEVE
pIC50: −log10 of the molar value.

- COMPOUND: "CCc1cc(OCc2ccc(-c3ccccc3-c3nnn[nH]3)cc2)c2nc(OC)ccc2n1.Cl [Example 4, hydrochloride]"
  pIC50: 7.70
